- TARGET_UNDER_TEST: T1, protein A (UniProt P38507 37-477)
- T1 construct: also called Protein A superantigen
- ASSAY_NAME: Heat/Cool phage ELISA: phage-displayed VH, 80 C 10 min then 4 C 10 min, captured on coated protein A; signal as % of untreated sample
- Description: The aggregation-resistance of clones was analyzed by measuring retention of signal after heat incubation in a phage ELISA format (McCafferty et al., 1990; Jespers et al., 2004). […] After three washes with PBS, bound phage particles were detected using an Extravidin-HRP conjugate (Sigma) and 3,3′,5,5′-tetramethylbenzidine (TMB) substrate. Absorbance was calculated by subtracting measurements at 450 and 650 nm. […]
ENDPOINT_LABEL: Retained binding to protein A (%)
Note: unit % is implicit; provide only the numeric part.

Example results:
Notebook: DP47 VH A33D (other, name in Kabat numbering) VH: QVQLLESGGGLVQPGGSLRLSCAASGFTFSSYDMSWVRQAPGKGLEWVSAISGSGGSTYYADSVKGRFTISRDNSKNTLYLQMNSLRAEDTAVYYCAKSYGAFDYWGQGTLVTVSS , Retained binding to protein A read as 26

Notebook: DP47 VH S31D (other, name in Kabat numbering) VH: QVQLLESGGGLVQPGGSLRLSCAASGFTFSDYAMSWVRQAPGKGLEWVSAISGSGGSTYYADSVKGRFTISRDNSKNTLYLQMNSLRAEDTAVYYCAKSYGAFDYWGQGTLVTVSS , Retained binding to protein A read as 31

Notebook: DP47 VH S35G (other, name in Kabat numbering) VH: QVQLLESGGGLVQPGGSLRLSCAASGFTFSSYAMGWVRQAPGKGLEWVSAISGSGGSTYYADSVKGRFTISRDNSKNTLYLQMNSLRAEDTAVYYCAKSYGAFDYWGQGTLVTVSS , Retained binding to protein A read as 4

Notebook: DP47 VH T28R (other, name in Kabat numbering) VH: QVQLLESGGGLVQPGGSLRLSCAASGFRFSSYAMSWVRQAPGKGLEWVSAISGSGGSTYYADSVKGRFTISRDNSKNTLYLQMNSLRAEDTAVYYCAKSYGAFDYWGQGTLVTVSS , Retained binding to protein A read as 2

Consider the record given below.
Notebook: DP47 VH Y32E (other, name in Kabat numbering) VH: QVQLLESGGGLVQPGGSLRLSCAASGFTFSSEAMSWVRQAPGKGLEWVSAISGSGGSTYYADSVKGRFTISRDNSKNTLYLQMNSLRAEDTAVYYCAKSYGAFDYWGQGTLVTVSS , Retained binding to protein A read as 41
